Origin of values: the supplement of paper PMC10266784

Hi there, I'd appreciate the recorded SGCB cell-surface expression functional score (log10) for every entry that follows.
B1: library; numbered along this chain (parent)
chain: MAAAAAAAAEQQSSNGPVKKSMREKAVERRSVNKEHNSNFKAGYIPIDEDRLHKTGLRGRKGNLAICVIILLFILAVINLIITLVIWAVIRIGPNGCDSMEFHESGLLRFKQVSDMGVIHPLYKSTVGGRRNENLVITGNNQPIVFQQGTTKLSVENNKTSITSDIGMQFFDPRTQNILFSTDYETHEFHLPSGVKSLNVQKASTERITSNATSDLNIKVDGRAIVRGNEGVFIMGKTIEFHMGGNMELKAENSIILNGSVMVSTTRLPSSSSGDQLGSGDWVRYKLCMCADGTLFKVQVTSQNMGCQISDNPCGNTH

- Variants of: B1
- PROTOCOL DESCRIPTION: SGCB cell-surface expression functional score (HA stain, bin4 vs bin1, normalised to synonymous) (log10 ratio); higher = more cell-surface SGCB (functional)
Write the number on its own, no unit after it.

Query: Tell me measured SGCB cell-surface expression functional score (log10) for L268F please.
Result: 0.46

Query: Tell me measured SGCB cell-surface expression functional score (log10) for I218S please.
Result: -1.26

Query: Tell me measured SGCB cell-surface expression functional score (log10) for I144A please.
Result: -0.98

Query: Tell me measured SGCB cell-surface expression functional score (log10) for I119P please.
Result: -0.94

Query: Tell me measured SGCB cell-surface expression functional score (log10) for V113Q please.
Result: -0.79

Query: Tell me measured SGCB cell-surface expression functional score (log10) for Q276D please.
Result: 0.34

Query: Tell me measured SGCB cell-surface expression functional score (log10) for L287A please.
Result: -0.96

Query: Tell me measured SGCB cell-surface expression functional score (log10) for S164T please.
Result: -0.69

Query: Tell me measured SGCB cell-surface expression functional score (log10) for S272P please.
Result: 0.21

Query: Tell me measured SGCB cell-surface expression functional score (log10) for S210H please.
Result: -0.47

Query: Tell me measured SGCB cell-surface expression functional score (log10) for K61N please.
Result: -0.39

Query: Tell me measured SGCB cell-surface expression functional score (log10) for V136T please.
Result: -0.51

Query: Tell me measured SGCB cell-surface expression functional score (log10) for W87D please.
Result: 0.08

Query: Tell me measured SGCB cell-surface expression functional score (log10) for E188D please.
Result: -0.04

Query: Tell me measured SGCB cell-surface expression functional score (log10) for R207A please.
Result: -1.05

Query: Tell me measured SGCB cell-surface expression functional score (log10) for G129R please.
Result: -1.04

Query: Tell me measured SGCB cell-surface expression functional score (log10) for T55R please.
Result: 0.21

Query: Tell me measured SGCB cell-surface expression functional score (log10) for A203K please.
Result: -1.01

Query: Tell me measured SGCB cell-surface expression functional score (log10) for P17W please.
Result: -0.2

Query: Tell me measured SGCB cell-surface expression functional score (log10) for L295W please.
Result: -1.84

Query: Tell me measured SGCB cell-surface expression functional score (log10) for K54Q please.
Result: -0.58

Query: Tell me measured SGCB cell-surface expression functional score (log10) for S31K please.
Result: 0.25

Query: Tell me measured SGCB cell-surface expression functional score (log10) for V300C please.
Result: -0.27

Query: Tell me measured SGCB cell-surface expression functional score (log10) for P46K please.
Result: -0.07

Query: Tell me measured SGCB cell-surface expression functional score (log10) for C288H please.
Result: -1

Query: Tell me measured SGCB cell-surface expression functional score (log10) for V18N please.
Result: -0.03

Query: Tell me measured SGCB cell-surface expression functional score (log10) for P94I please.
Result: -0.61

Query: Tell me measured SGCB cell-surface expression functional score (log10) for S14T please.
Result: -0.01

Query: Tell me measured SGCB cell-surface expression functional score (log10) for N132R please.
Result: -0.38

Query: Tell me measured SGCB cell-surface expression functional score (log10) for R174I please.
Result: -0.15

Query: Tell me measured SGCB cell-surface expression functional score (log10) for E240Q please.
Result: 1

Query: Tell me measured SGCB cell-surface expression functional score (log10) for G93N please.
Result: -0.14

Query: Tell me measured SGCB cell-surface expression functional score (log10) for A3K please.
Result: 0.06

Query: Tell me measured SGCB cell-surface expression functional score (log10) for M22A please.
Result: 0.08

Query: Tell me measured SGCB cell-surface expression functional score (log10) for V155Q please.
Result: -1.48

Query: Tell me measured SGCB cell-surface expression functional score (log10) for R23C please.
Result: 0.49

Query: Tell me measured SGCB cell-surface expression functional score (log10) for G278Q please.
Result: 0.09

Query: Tell me measured SGCB cell-surface expression functional score (log10) for N253P please.
Result: -0.52

Query: Tell me measured SGCB cell-surface expression functional score (log10) for P46R please.
Result: -0.18

Query: Tell me measured SGCB cell-surface expression functional score (log10) for E104R please.
Result: 0.26
